Experiment: Lipophilicity determination by RP-HPLC (capacity factor k / logk)
Format: physicochemical
Conditions: series A; π = logkS − logkU, unsubstituted 1a as reference
Protocol: A HPLC separation module Waters Alliance 2695 XE equipped with a Waters Dual Absorbance Detector 2486 (Waters Corp., Milford, MA, USA) was used. A chromatographic column Symmetry® C18 5 µm, 4.6 × 250 mm, Part No. W21751W016 (Waters Corp.) was used. The HPLC separation process was monitored by Empower® 3 Chromatography Manager Software (Waters Corp.). Isocratic elution by a mixture of MeOH p.a. […] Retention times (tR) were measured in minutes. […]
assay_readout: πA (distributive parameter π calculated from logk)

Reference set (2 entries):
>>> value_measured("COc1ccccc1NC(=O)c1cc2ccccc2cc1O")
0.09
>>> value_measured("CCC(C)Oc1ccccc1NC(=O)c1cc2ccccc2cc1O (stereo not drawn) [17a]")
1.00

a = CCOc1cccc(NC(=O)c2cc3ccccc3cc2O)c1
b = CCC(C)Oc1cccc(NC(=O)c2cc3ccccc3cc2O)c1 (stereo not drawn) [18a]
c = COc1ccc(NC(=O)c2cc3ccccc3cc2O)cc1
d = CC(C)Oc1cccc(NC(=O)c2cc3ccccc3cc2O)c1 [15a]
Req: Descending sort on πA (distributive parameter π calculated from logk) required. Present the labels in the sequence the task asks for.
Resp: b, d, a, c
(b: 0.95, d: 0.61, a: 0.36, c: −0.15)

* * *

experiment: Lipophilicity determination by RP-HPLC (capacity factor k / logk); assay type: physicochemical; conditions: series B; π = logkS − logkU, unsubstituted 1b as reference
assay_readout: πB (distributive parameter π calculated from logk)

Worked examples follow.
>>> value_measured("COc1ccccc1NC(=O)c1ccc2ccccc2c1O")
0.09
>>> value_measured("CCCOc1cccc(NC(=O)c2ccc3ccccc3c2O)c1")
0.69
>>> value_measured("CCCCOc1cccc(NC(=O)c2ccc3ccccc3c2O)c1 [12b]")
1.02
>>> value_measured("CC(C)Oc1ccccc1NC(=O)c1ccc2ccccc2c1O [14b]")
0.66
>>> value_measured("O=C(Nc1ccccc1)c1ccc2ccccc2c1O")
0

A = CCCCOc1ccccc1NC(=O)c1ccc2ccccc2c1O [11b]
B = CC(C)Oc1cccc(NC(=O)c2ccc3ccccc3c2O)c1 [15b]
C = CCOc1ccc(NC(=O)c2ccc3ccccc3c2O)cc1
D = COc1ccc(NC(=O)c2ccc3ccccc3c2O)cc1
E = COc1cccc(NC(=O)c2ccc3ccccc3c2O)c1
Req: Would you mind ranking these compounds by ascending πB (distributive parameter π calculated from logk)? The response must list the labels following the requested ordering.
Resp: D, E, C, B, A

* * *

assay: Lipophilicity determination by RP-HPLC (capacity factor k / logk); type: physicochemical; settings: series C; π = logkS − logkU, unsubstituted 1c as reference
assay_readout: πC (distributive parameter π calculated from logk)

Worked examples, 3 compounds total:
>>> value_measured("CCOc1ccc(NC(=O)c2c(O)ccc3ccccc23)cc1 [7c]")
0.27
>>> value_measured("CCC(C)Oc1cccc(NC(=O)c2c(O)ccc3ccccc23)c1 (centres unmarked) [18c]")
0.91
>>> value_measured("CCCOc1ccccc1NC(=O)c1c(O)ccc2ccccc12 [8c]")
0.73

P = COc1ccccc1NC(=O)c1c(O)ccc2ccccc12 [2c]
Q = CCC(C)Oc1ccccc1NC(=O)c1c(O)ccc2ccccc12 (centres unmarked) [17c]
Req: Which value of πC (distributive parameter π calculated from logk) is numerically greater: that of P or that of Q ? Give the chosen item's label as your response.
Resp: Q

* * *

assay: Lipophilicity determination by RP-HPLC (capacity factor k / logk); assay type: physicochemical; conditions: series C; π = logkS − logkU, unsubstituted 1c as reference
assay_readout: πC (distributive parameter π calculated from logk)

Check out these entries, answers already filled in.
>>> value_measured("CC(C)Oc1ccc(NC(=O)c2c(O)ccc3ccccc23)cc1 [16c]")
0.55
>>> value_measured("CCCCOc1ccc(NC(=O)c2c(O)ccc3ccccc23)cc1 [13c]")
1.05
>>> value_measured("CCCOc1cccc(NC(=O)c2c(O)ccc3ccccc23)c1 [9c]")
0.65
>>> value_measured("CC(C)Oc1ccccc1NC(=O)c1c(O)ccc2ccccc12 [14c]")
0.66
>>> value_measured("CCCCOc1cccc(NC(=O)c2c(O)ccc3ccccc23)c1 [12c]")
1.00
>>> value_measured("CCOc1cccc(NC(=O)c2c(O)ccc3ccccc23)c1 [6c]")
0.34
>>> value_measured("CCOc1ccccc1NC(=O)c1c(O)ccc2ccccc12 [5c]")
0.39
>>> value_measured("CCC(C)Oc1ccc(NC(=O)c2c(O)ccc3ccccc23)cc1 (centres unmarked) [19c]")
0.91

a = CCCCOc1ccccc1NC(=O)c1c(O)ccc2ccccc12 [11c]
b = COc1ccc(NC(=O)c2c(O)ccc3ccccc23)cc1 [4c]
Req: Hi, I'm comparing two records. Which one has the lower πC (distributive parameter π calculated from logk), a or b ? State your choice using its label.
Resp: b

* * *

assay: Lipophilicity determination by RP-HPLC (capacity factor k / logk); format: physicochemical; conditions: series C; isocratic MeOH 72%/H2O 28%, C18 column, 40 °C
assay_readout: logk

In the examples that follow, each entry is paired with its recorded logk.
>>> value_measured("CC(C)Oc1ccccc1NC(=O)c1c(O)ccc2ccccc12 [14c]")
0.6145
>>> value_measured("CCC(C)Oc1ccccc1NC(=O)c1c(O)ccc2ccccc12 (stereo not drawn) [17c]")
0.7927

1 = O=C(Nc1ccccc1)c1c(O)ccc2ccccc12
2 = CCCCOc1cccc(NC(=O)c2c(O)ccc3ccccc23)c1 [12c]
Req: Pick one: 1 or 2 . Which has the bigger logk number? The response must carry the label of the picked entry.
Resp: 2
(2: 0.5161, 1: −0.0581)

P = CCC(C)Oc1ccc(NC(=O)c2c(O)ccc3ccccc23)cc1 (stereo not drawn) [19c]
Q = COc1cccc(NC(=O)c2c(O)ccc3ccccc23)c1
Req: Endpoint returns the identifier whose logk is numerically larger, either P or Q . Refer to your chosen item by its label in the answer.
Resp: P

* * *

assay: Lipophilicity determination by RP-HPLC (capacity factor k / logk); type: physicochemical; conditions: series A; π = logkS − logkU, unsubstituted 1a as reference
assay_readout: πA (distributive parameter π calculated from logk)

>>> value_measured("CCC(C)Oc1ccc(NC(=O)c2cc3ccccc3cc2O)cc1 (stereo not shown) [19a]")
0.09
>>> value_measured("CC(C)Oc1ccc(NC(=O)c2cc3ccccc3cc2O)cc1 [16a]")
0.59
>>> value_measured("CCCCOc1ccc(NC(=O)c2cc3ccccc3cc2O)cc1 [13a]")
1.08

I = CCCOc1cccc(NC(=O)c2cc3ccccc3cc2O)c1
II = CCOc1ccccc1NC(=O)c1cc2ccccc2cc1O
Req: Returns: the label, I or II , whose recorded πA (distributive parameter π calculated from logk) is the lower number. Response format: the label of the selected entry.
Resp: II
(II: 0.40, I: 0.69)

* * *

experiment: Lipophilicity determination by RP-HPLC (capacity factor k / logk); assay type: physicochemical; conditions: series A; isocratic MeOH 72%/H2O 28%, C18 column, 40 °C
assay_readout: logk

For orientation, consider the following solved cases.
>>> value_measured("CCCCOc1cccc(NC(=O)c2cc3ccccc3cc2O)c1 [12a]")
0.9711
>>> value_measured("COc1ccc(NC(=O)c2cc3ccccc3cc2O)cc1 [4a]")
0.3374
>>> value_measured("CCC(C)Oc1ccccc1NC(=O)c1cc2ccccc2cc1O (centres unmarked) [17a]")
0.7956

A = CCOc1cccc(NC(=O)c2cc3ccccc3cc2O)c1 [6a]
B = O=C(Nc1ccccc1)c1cc2ccccc2cc1O [1a]
C = CCC(C)Oc1cccc(NC(=O)c2cc3ccccc3cc2O)c1 (centres unmarked) [18a]
Req: Arrange the 3 entries by logk so the values rise. Returns: the labels listed in the requested order.
Resp: B, A, C
(B: 0.3927, A: 0.5682, C: 0.8670)

* * *

experiment: Lipophilicity determination by RP-HPLC (capacity factor k / logk); assay type: physicochemical; details: series B; π = logkS − logkU, unsubstituted 1b as reference
assay_readout: πB (distributive parameter π calculated from logk)

1 = CCCOc1ccc(NC(=O)c2ccc3ccccc3c2O)cc1 [10b]
2 = CCOc1ccccc1NC(=O)c1ccc2ccccc2c1O
Req: Given the listed items, does 1 or 2 have the lesser reported πB (distributive parameter π calculated from logk)? Selection: enter the item's label.
Resp: 2

a = CCCOc1ccccc1NC(=O)c1ccc2ccccc2c1O
b = CCCCOc1ccc(NC(=O)c2ccc3ccccc3c2O)cc1 [13b]
c = CCOc1cccc(NC(=O)c2ccc3ccccc3c2O)c1
Req: Ascending sort, πB (distributive parameter π calculated from logk). # respond with the labels, arranged in the requested order
Resp: c, a, b

A = CCC(C)Oc1cccc(NC(=O)c2ccc3ccccc3c2O)c1 (centres unmarked) [18b]
B = CC(C)Oc1ccc(NC(=O)c2ccc3ccccc3c2O)cc1 [16b]
Req: Which of the two items, A and B , has the greater recorded πB (distributive parameter π calculated from logk)? # respond with the chosen item's label
Resp: A
